Test system: L1210 leukemia ip in BDF1 mice, survival T/C
Assay: NCI In Vivo Anticancer Drug Screen. Data for tumor model L1210 Leukemia (intraperitoneal) in B6D2F1 (BDF1) mice
Conditions: endpoint: mean survival time; dose: 400.0 mg/kg/injection; schedule: Q04DX003 (ip); vehicle: saline with Tween-80
Toxic doses and inconclusive results are not listed. No stated cut-off is given here; in the data, active means T/C of 150% or more; inactive means T/C below 125%.
Parameter call: string, one of t = active, f = inactive

> print(dat)
                            compound  class.name
1  [O-]c1on[n+](C2CCCCC2)c1-c1ccccc1           f

Now look at this entry.
-- ask # lookup: test call for `CCNc1cc(Cl)nc(N)n1`
-- reply f

----------
Each entry below carries its reported T/C.
System: L1210 leukemia ip in BDF1 mice, survival T/C
Assay: NCI In Vivo Anticancer Drug Screen. Data for tumor model L1210 Leukemia (intraperitoneal) in B6D2F1 (BDF1) mice
Details: endpoint: mean survival time; dose: 75.0 mg/kg/injection; schedule: Q04DX003 (ip); vehicle: Klucel (hydroxypropylcellulose) (HPC); higher = longer survival
Inconclusive results and toxic doses are left out.

Some compounds with recorded T/C:
> print(dat)
                                   compound                          target.or.system  experimental.result
1           COC(=O)NS(=O)(=O)/C=C/N1CCCC1=O  L1210 leukemia ip in BDF1 mice, survival T/C      96 % of control
2                    O=C(O)/C=C/c1ccc(O)cc1  L1210 leukemia ip in BDF1 mice, survival T/C      97 % of control
3  O=C(CC(C#Cc1ccccc1)c1ccccc1)c1ccccc1 (centres undefined)  L1210 leukemia ip in BDF1 mice, survival T/C      97 % of control

Now look at this entry.
-- ask Lab note: need T/C for CCOC(=O)C1NC(=O)C(C(=O)OCC)C1C(C)C (centres undefined) on L1210 leukemia ip in BDF1 mice, survival T/C, anyone have it?
-- reply 102 % of control

----------
Documented T/C across a set of molecules
Tested on: L1210 leukemia ip in BDF1 mice, survival T/C
Test: NCI In Vivo Anticancer Drug Screen. Data for tumor model L1210 Leukemia (intraperitoneal) in B6D2F1 (BDF1) mice
Details: endpoint: mean survival time; dose: 100.0 mg/kg/injection; schedule: Q04DX002 (ip); vehicle: saline with Tween-80; higher = longer survival
Toxic doses and inconclusive results are not listed.

Consider the worked cases shown below.
> print(dat)
                                   molecule  experimental.result
1                        CCCCCC#CC(=O)OCCCC     102 % of control
2  CN(C)/C=N\c1ncnc2c1ncn2C1OC(CO)C(O)C1O (stereo not drawn)     102 % of control
3                          NC(=S)c1ncc(N)s1      92 % of control
4  CC(C)N(CCNCC(Cc1ccccc1)c1ccccc1)C(C)C (stereo not drawn)     102 % of control

From here, focus on the item given below.
-- ask // fetch L1210 leukemia ip in BDF1 mice, survival T/C T/C for CC1=CC(C)=NC2NNC(=O)C12 (stereo not drawn)
-- reply 100 % of control

----------
Tested on: L1210 leukemia ip in BDF1 mice, survival T/C
Test: NCI In Vivo Anticancer Drug Screen. Data for tumor model L1210 Leukemia (intraperitoneal) in B6D2F1 (BDF1) mice
Settings: endpoint: mean survival time; dose: 200.0 mg/kg/injection; schedule: Q01DX009 (ip); vehicle: Klucel (hydroxypropylcellulose) (HPC); higher = longer survival
Inconclusive results and toxic doses are left out.
Documented T/C across a set of molecules

> print(dat)
                                   molecule                          target.or.system  readout  experimental.result
1  OC1(C#CC2(O)c3ccccc3-c3ccccc32)c2ccccc2-c2ccccc21  L1210 leukemia ip in BDF1 mice, survival T/C      T/C      97 % of control
2  O=C(Nc1ccc(F)c([N+](=O)[O-])c1)Oc1cc(=O)oc2ccccc12  L1210 leukemia ip in BDF1 mice, survival T/C      T/C      97 % of control
3             Cc1cc(Cl)ccc1NC(=O)Nc1ccccc1F  L1210 leukemia ip in BDF1 mice, survival T/C      T/C      96 % of control
4  FC1(F)SC2c3ccccc3CC2C1(F)F (stereo unspecified)  L1210 leukemia ip in BDF1 mice, survival T/C      T/C     101 % of control

-- ask Which measured T/C belongs to CCCCCCCCCCCCCCCCC(O)CO (stereo unspecified) , tested on L1210 leukemia ip in BDF1 mice, survival T/C?
-- reply 102 % of control

-- ask What reported T/C corresponds to `CCc1ccc(N=C(C)c2c(O)cc(C)oc2=O)cc1` on L1210 leukemia ip in BDF1 mice, survival T/C?
-- reply 100 % of control

----------
Test system: L1210 leukemia ip in BDF1 mice, survival T/C
Assay: NCI In Vivo Anticancer Drug Screen. Data for tumor model L1210 Leukemia (intraperitoneal) in B6D2F1 (BDF1) mice
Conditions: endpoint: mean survival time; dose: 20.0 mg/kg/injection; schedule: Q01DX001 (ip); vehicle: saline; higher = longer survival
Inconclusive results and toxic doses are left out.
readout: T/C

Example entries and their recorded answers appear below.
> print(dat)
                                   compound  experimental.result
1                  CNC(=O)Oc1cccc(CN(C)C)c1      96 % of control
2                    COc1ccc(OC)c(CBr)c1CBr     101 % of control
3  C/C(=N\NC(N)=S)C1OCCc2ccccc21 (centres undefined)      98 % of control

Then there is this compound:
-- ask Reported T/C, compound O=C(O)C1=CC2C=C(Cl)C=CC2OC1=O (centres undefined) : ____
-- reply 96 % of control

----------
Tested on: L1210 leukemia ip in BDF1 mice, survival T/C
Test: NCI In Vivo Anticancer Drug Screen. Data for tumor model L1210 Leukemia (intraperitoneal) in B6D2F1 (BDF1) mice
Conditions: endpoint: mean survival time; dose: 150.0 mg/kg/injection; schedule: Q04DX003 (ip); vehicle: saline; higher = longer survival
Inconclusive results and toxic doses are left out.
readout: T/C

-- ask Entry FC(F)(F)C(Cl)Br (stereo not given) has what T/C?
-- reply 98 % of control

----------
A collection of compounds and their measured T/C
Tested on: L1210 leukemia ip in BDF1 mice, survival T/C
Experiment: NCI In Vivo Anticancer Drug Screen. Data for tumor model L1210 Leukemia (intraperitoneal) in B6D2F1 (BDF1) mice
Conditions: endpoint: mean survival time; dose: 50.0 mg/kg/injection; schedule: Q01DX009 (ip); vehicle: Klucel (hydroxypropylcellulose) (HPC); higher = longer survival
Protocol: The antitumor activity of compounds was measured in mice bearing transplantable tumors. Survival or tumor size were measured and the results are expressed as the measurement made in the treated group (T) divided by the measurement made in the vehicle treated control group (C). The tumor model used in this assay is L1210 Leukemia (intraperitoneal) in B6D2F1 (BDF1) mice
Inconclusive results and toxic doses are left out.

> print(dat)
                                   compound                          target.or.system  readout  experimental.result
1  O=[N+]([O-])c1cc(S(=O)(=O)Oc2ccccc2)ccc1Cl  L1210 leukemia ip in BDF1 mice, survival T/C      T/C     100 % of control
2      CCc1ccccc1NC(=O)SCCSC(=O)Nc1ccccc1CC  L1210 leukemia ip in BDF1 mice, survival T/C      T/C     102 % of control
3  CCNC(Cc1ccccc1)c1ccco1 (stereo not drawn)  L1210 leukemia ip in BDF1 mice, survival T/C      T/C     109 % of control
4                       CSc1cc(C)[o+]c(C)c1  L1210 leukemia ip in BDF1 mice, survival T/C      T/C     105 % of control

-- ask What value of T/C has been recorded for this entry: CC1(C)C=C(C(Br)c2ccc(Cl)cc2)C(=O)c2ccccc21 (stereo not drawn)
-- reply 110 % of control

-- ask What measured T/C goes with `O=C(O)CCc1nc2ccccc2c(=O)[nH]1` ?
-- reply 100 % of control

-- ask Data request, read-out T/C, for `CC[n+]1ccc(/C=C\c2cccc([N+](=O)[O-])c2)cc1`
-- reply 91 % of control

-- ask Item under review: CCN(CC)CCCC(C)Nc1ccnc(/C=C/c2ccc(Cl)cc2)c1 (stereo not drawn) . Reported T/C?
-- reply 95 % of control
